The measurements presented in this section are drawn from patent US20240116985A1.

Biological target: full-length beta-Catenin (Uniprot ID P35222) (Homo sapiens, UniProt P35222)
Construct: 10 nM full-length beta-Catenin (Uniprot ID P35222)
Sequence (P35222 whole entry): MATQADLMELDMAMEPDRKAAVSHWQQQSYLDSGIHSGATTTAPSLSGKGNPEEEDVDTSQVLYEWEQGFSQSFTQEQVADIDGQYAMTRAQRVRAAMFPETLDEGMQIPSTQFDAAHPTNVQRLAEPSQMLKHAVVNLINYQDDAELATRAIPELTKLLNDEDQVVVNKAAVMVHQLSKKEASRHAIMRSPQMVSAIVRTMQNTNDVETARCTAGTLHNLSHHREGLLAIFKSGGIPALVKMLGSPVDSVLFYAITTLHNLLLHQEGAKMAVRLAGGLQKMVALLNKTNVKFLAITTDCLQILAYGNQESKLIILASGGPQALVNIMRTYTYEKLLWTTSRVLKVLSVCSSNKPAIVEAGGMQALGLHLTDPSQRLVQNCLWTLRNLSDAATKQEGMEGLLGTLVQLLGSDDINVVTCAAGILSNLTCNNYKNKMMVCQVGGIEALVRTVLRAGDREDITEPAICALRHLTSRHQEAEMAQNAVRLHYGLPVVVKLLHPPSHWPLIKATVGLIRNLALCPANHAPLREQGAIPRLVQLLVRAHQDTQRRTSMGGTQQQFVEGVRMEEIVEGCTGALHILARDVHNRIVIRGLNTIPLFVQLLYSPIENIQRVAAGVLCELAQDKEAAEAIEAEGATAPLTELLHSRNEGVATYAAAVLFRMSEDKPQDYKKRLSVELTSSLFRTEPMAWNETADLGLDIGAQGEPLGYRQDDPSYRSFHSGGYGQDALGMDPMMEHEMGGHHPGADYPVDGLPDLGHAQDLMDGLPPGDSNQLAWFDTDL
Experiment: Fluorescence polarization IC50 (beta-catenin / 5FAM-TCF4 10-53 competition)
Assay type: binding
Details: Table E2-1; read-out: beta-Catenin FP IC50
measured metric: IC50 (nM)
Report only the number, with the unit nM understood.

Provide full-length beta-Catenin (Uniprot ID P35222) (Homo sapiens, UniProt P35222) IC50 reading for CC(=O)N1CCC[C@]12CC=CCCCC1(CCCC=CCCCCCC[C@@](C)(C(=O)N[C@@H](Cc3cccc(F)c3)C(=O)N[C@@H](Cc3csc4ccccc34)C(=O)N[C@@H](CCC(N)=O)C(N)=O)NC(=O)[C@H](C)NC(=O)[C@H](Cc3ccccc3)NC(=O)[C@H](C)NC(=O)[C@H](C)NC(=O)[C@H](CCC(=O)O)NC(=O)[C@H](CC(=O)O)NC1=O)NC(=O)[C@H](C)NC(=O)[C@H](CC(=O)O)NC2=O (stereo partly drawn) .
2090

Provide full-length beta-Catenin (Uniprot ID P35222) (Homo sapiens, UniProt P35222) IC50 reading for CC(=O)N1CCC[C@]12CC=CCCCC1(CCCC=CCCCCCC[C@@](C)(C(=O)N[C@@H](Cc3ccccc3)C(=O)N[C@@H](Cc3csc4ccccc34)C(=O)N[C@@H](CCC(N)=O)C(N)=O)NC(=O)[C@H](C(C)C)NC(=O)[C@H](Cc3ccccc3)NC(=O)[C@H](C)NC(=O)[C@H](C)NC(=O)[C@H](CC(=O)O)NC(=O)[C@H](CC(=O)O)NC1=O)NC(=O)[C@H](CCC(N)=O)NC(=O)[C@H](CC(=O)O)NC2=O (stereo partly drawn) [I-346] .
180

Provide full-length beta-Catenin (Uniprot ID P35222) (Homo sapiens, UniProt P35222) IC50 reading for CC[C@H](C)[C@@H]1NC(=O)[C@H](CC(=O)O)NC(=O)[C@]2(CC=CCCCC3(CCCC=CCCCCCC[C@@](C)(C(=O)N[C@@H](Cc4ccccc4)C(=O)N[C@@H](Cc4c[nH]c5ccccc45)C(N)=O)NC(=O)[C@H](CCC(N)=O)NC(=O)[C@H](Cc4ccccc4)NC(=O)[C@H](C)NC(=O)[C@H](C)NC(=O)[C@H](CCC(=O)O)NC(=O)[C@H](CC(=O)O)NC3=O)NC1=O)CCCN2C(C)=O (stereo partly drawn) [I-193] .
533

---

Test: Solubility in PBS
Type: physicochemical
Conditions: Solubility (uM)
measured metric: Solubility (µM)
Report only the number, with the unit µM understood.

Supply reported Solubility belonging to this compound: CC(=O)N1CCC[C@]12CC=CCCCC1(CCCC=CCCCOC(=O)N3CC[C@@](C(=O)N[C@@H](Cc4ccsc4)C(=O)N[C@@H](Cc4csc5ccccc45)C(=O)N[C@@H](CCC(N)=O)C(N)=O)(C3)NC(=O)[C@H](CC(N)=O)NC(=O)[C@H](Cc3ccccc3)NC(=O)[C@H](C)NC(=O)[C@H](CCCCNC(=O)c3ccc(-n4cc(CNC(=O)c5ccc6c(c5)C5(OC6=O)c6ccc(O)cc6Oc6cc(O)ccc65)nn4)cc3)NC(=O)[C@H](CC(C)C)NC(=O)[C@H](CC(=O)O)NC1=O)NC(=O)[C@H](CC(C)(C)C)NC(=O)[C@H](CC(=O)O)NC2=O (stereo partly shown)
13
